Collected Neutralizing activity IC50 values appear next to each entry.
# subject of test: baboon EL (baboon)
# assay explanation: cell-based or functional assay
Just the number please, in nM, no unit attached.

Solved entries (count: 3):
{"columns": ["binder", "Neutralizing activity IC50, nM"],
 "data": [
  ["14A1 (antibody, mouse IgG1, V domains shown, mouse IgG1 from hybridoma) VH: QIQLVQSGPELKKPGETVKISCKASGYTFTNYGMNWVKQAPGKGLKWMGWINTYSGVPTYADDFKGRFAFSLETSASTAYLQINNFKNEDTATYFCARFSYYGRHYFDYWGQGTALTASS VL: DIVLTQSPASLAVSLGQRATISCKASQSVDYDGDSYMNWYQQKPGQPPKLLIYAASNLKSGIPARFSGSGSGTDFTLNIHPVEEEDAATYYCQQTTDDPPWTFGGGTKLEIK", 2.7],
  ["16B3 (antibody, mouse IgG2a, V domains shown, mouse IgG2a from hybridoma; also called 16B3 (mouse mAb)) VH: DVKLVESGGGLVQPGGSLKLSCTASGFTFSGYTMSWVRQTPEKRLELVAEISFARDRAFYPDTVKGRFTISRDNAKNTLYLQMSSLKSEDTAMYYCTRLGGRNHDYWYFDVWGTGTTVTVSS VL: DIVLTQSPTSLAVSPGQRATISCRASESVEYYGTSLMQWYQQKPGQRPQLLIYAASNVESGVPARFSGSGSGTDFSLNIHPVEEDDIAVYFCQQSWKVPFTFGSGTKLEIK", 3],
  ["19E7 (antibody, mouse IgG2a, V domains shown, mouse IgG2a from hybridoma; also called 19E1(19E7)) VH: QVQLQQPGSVLVRPGASVKLSCKASGYTFTTYWMHWVKQRPGQGLEWIGEIHPYSGNNNNNEKFKGKATLTVDTSSSTAYVDLSRLTSEDSAVYYCARYDSNYVFAYWGQGTLVTVSA VL: QIVLTQSPAIMSASPGEGVTITCSASSSVSYMHWFQQKPGTSPKLWIYSTSNLASGVPARFSGSGSGTSYSLTISRMEAEDAATYYCQQRDSYLTFGSGTKLEVK", 2]
]}

Let's switch to this binder now.
Please look at this binder and report its Neutralizing activity IC50: 53A11 (antibody, mouse IgG2a, V domains shown, mouse IgG2a from hybridoma; also called 53A11 (mouse mAb)) VH: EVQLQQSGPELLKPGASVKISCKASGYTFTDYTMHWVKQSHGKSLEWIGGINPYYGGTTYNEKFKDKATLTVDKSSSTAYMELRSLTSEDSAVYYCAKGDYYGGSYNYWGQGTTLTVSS VL: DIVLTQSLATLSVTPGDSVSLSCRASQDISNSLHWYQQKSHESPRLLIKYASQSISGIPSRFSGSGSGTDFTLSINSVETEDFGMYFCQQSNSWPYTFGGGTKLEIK 2.4
